Molecular target: T1, laminin-111 (human, UniProt P25391 18-3075; P07942 22-1786; P11047 34-1609)
T1 construct: Full-length recombinant human laminin isoform (BioLamina); Chain composition is read from the isoform name
Assay: ELISA, GF coated, laminin 10 nM
Procedure: ELISA tests were performed as previously reported. In brief, ELISA plates (med-binding, Greiner Bio-One) were coated with 50 nM GFs at 37° C. for more than 2 hrs. […] Bound laminin was detected with rabbit anti-human laminin γ1 chain antibody (1:1000 dilution, Assay biotech) or rabbit anti-human laminin α3 chain antibody (1:1000 dilution, Assay biotech). […] Subsequently, the absorbance at 450 nm was measured with a reference of 570 nm.

- binder: "neurotrophin (NT)-3 (ligand, UniProt P20783 139-257, looked up, mature; Purchased in mature form) YAEHKSHRGEYSVCDSESLWVTDKSSAIDIRGHQVTVLGEIKTGNSPVKQYFYETRCKEARPVKNGCRGIDDKHWNSQCKTSQTYVRALTSENNKLVGWRWIRIDTSCVCALSRKIGRT"
  binding result: "binds"
- binder: "fibroblast growth factor (FGF)-18 (ligand, UniProt O76093 28-207, looked up, mature; Purchased in mature form) EENVDFRIHVENQTRARDDVSRKQLRLYQLYSRTSGKHIQVLGRRISARGEDGDKYAQLLVETDTFGSQVRIKGKETEFYLCMNRKGKLVGKPDGTSKECVFIEKVLENNYTALMSAKYSGWYVGFTKKGRPRKGPKTRENQQDVHFMKRYPKGQPELQKPFKYTTVTKRSRRIRPTHPA"
  binding result: "binds"
- binder: "bone morphogenetic protein (BMP)-2 (ligand, UniProt P12643 283-396, looked up, mature) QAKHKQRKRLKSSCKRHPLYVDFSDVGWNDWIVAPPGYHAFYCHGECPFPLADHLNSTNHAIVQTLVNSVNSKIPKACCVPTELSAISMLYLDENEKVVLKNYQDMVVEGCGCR"
  binding result: "binds"
